Target: UniProt P08482
Sequence (P08482 whole entry): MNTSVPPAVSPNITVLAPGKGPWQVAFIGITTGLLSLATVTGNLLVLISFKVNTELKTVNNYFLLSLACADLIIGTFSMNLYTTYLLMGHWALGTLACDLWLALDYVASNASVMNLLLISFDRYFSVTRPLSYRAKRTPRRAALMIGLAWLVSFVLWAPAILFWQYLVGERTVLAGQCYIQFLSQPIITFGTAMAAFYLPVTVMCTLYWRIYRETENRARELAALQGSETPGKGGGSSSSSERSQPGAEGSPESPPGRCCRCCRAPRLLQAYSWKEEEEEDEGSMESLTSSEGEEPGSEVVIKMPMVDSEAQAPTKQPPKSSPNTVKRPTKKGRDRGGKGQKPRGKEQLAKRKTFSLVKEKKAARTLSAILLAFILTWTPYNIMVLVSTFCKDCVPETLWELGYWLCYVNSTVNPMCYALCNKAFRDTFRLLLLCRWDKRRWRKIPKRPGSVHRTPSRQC
pKi for UniProt P08482, merged from several publications.
Lab note — pKi values are minus log10 of concentrations in M.

CN1CCN(C2=Cn3cccc3Sc3ccccc32)CC1	5.68
CN(CCCCCCCCN(C)CCCCCCN(CC(=O)N1c2ccccc2C(=O)Nc2cccnc21)CC(=O)N1c2ccccc2C(=O)Nc2cccnc21)CCCCCCN(CC(=O)N1c2ccccc2C(=O)Nc2cccnc21)CC(=O)N1c2ccccc2C(=O)Nc2cccnc21.O=C(O)C(=O)O.O=C(O)C(=O)O.O=C(O)C(=O)O.O=C(O)C(=O)O	8.32
C#CCn1ncc(C2=CC(C)CNC2)n1 (configuration not stated)	7.52
CN(CCCCCCCCN(C)C(=O)CCCCCN(CC(=O)N1c2ccccc2C(=O)Nc2cccnc21)CC(=O)N1c2ccccc2C(=O)Nc2cccnc21)C(=O)CCCCCNCC(=O)N1c2ccccc2C(=O)Nc2cccnc21	7.30
CCCn1nnc(C2=CCCN(C)C2)n1	7.24

Input line: Indicate its recorded pKi; the compound in question is CC1=C(c2nnn(C)n2)CNCC1
Output line: 6.02

Input line: Indicate its recorded pKi; the compound in question is CN(CCCCCCCCN(C)CCCCCCN(CC(=O)N1c2ccccc2NC(=O)c2cccnc21)CC(=O)N1c2ccccc2NC(=O)c2cccnc21)CCCCCCN(CC(=O)N1c2ccccc2NC(=O)c2cccnc21)CC(=O)N1c2ccccc2NC(=O)c2cccnc21
Output line: 7.60

Input line: Indicate its recorded pKi; the compound in question is CN(CCCCCCN)CCCCCCCCN(C)CCCCCCNCC(=O)N1c2ccccc2C(=O)Nc2cccnc21
Output line: 8.36

Input line: Indicate its recorded pKi; the compound in question is CCCCCn1nnc(C2=CCCN(C)C2)n1
Output line: 7.59

Input line: Indicate its recorded pKi; the compound in question is CC1OC2(CCN(C)CC2)C/C1=N\NC(=O)c1ccccc1 (configuration not stated)
Output line: 4.11

Input line: Indicate its recorded pKi; the compound in question is CCN1C(=O)OC2(CCN(C)CC2)C1=O.Cl
Output line: 5.30

Input line: Indicate its recorded pKi; the compound in question is CN1CCC=C(C2CN(C(=S)Nc3ccc(Cl)cc3Cl)CCO2)C1 (configuration not stated)
Output line: 4.51

Input line: Indicate its recorded pKi; the compound in question is CC1OC2(CCN(C)CC2)C/C1=N\NC(=O)CCCCC1CCCCC1 (configuration not stated)
Output line: 5.10

Input line: Indicate its recorded pKi; the compound in question is CC(C)N(CC[C@H](c1ccccc1)c1cc(CCNC(=O)CCCCCNC(=O)COc2ccc(/C=C/C3=[N+]4C(=Cc5ccc(-c6cccs6)n5[B-]4(F)F)C=C3)cc2)ccc1O)C(C)C
Output line: 8.34

Input line: Indicate its recorded pKi; the compound in question is CC1OC2(CCN(C)CC2)C/C1=N\NC(=O)CC1CCCCC1 (configuration not stated)
Output line: 4.52

Input line: Indicate its recorded pKi; the compound in question is CN1CCC=C(C2CN(C(=S)Nc3ccc(Cl)cc3)CCO2)C1 (configuration not stated)
Output line: 6.51
